Target: UGT2B7 (Homo sapiens, UniProt P16662)
Sequence (P16662 24-529): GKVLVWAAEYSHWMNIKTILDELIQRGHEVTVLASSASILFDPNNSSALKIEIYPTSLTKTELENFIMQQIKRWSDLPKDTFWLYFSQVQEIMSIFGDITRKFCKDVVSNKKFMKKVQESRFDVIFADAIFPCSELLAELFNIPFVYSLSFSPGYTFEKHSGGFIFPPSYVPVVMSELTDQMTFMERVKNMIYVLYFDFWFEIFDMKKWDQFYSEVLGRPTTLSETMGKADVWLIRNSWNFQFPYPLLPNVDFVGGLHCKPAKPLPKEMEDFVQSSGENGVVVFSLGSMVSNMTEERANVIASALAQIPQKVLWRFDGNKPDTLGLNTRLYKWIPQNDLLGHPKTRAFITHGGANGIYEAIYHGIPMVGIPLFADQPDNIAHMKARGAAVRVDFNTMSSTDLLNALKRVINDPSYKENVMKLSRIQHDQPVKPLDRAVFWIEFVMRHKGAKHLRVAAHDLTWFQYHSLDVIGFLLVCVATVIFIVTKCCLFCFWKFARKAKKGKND
Assay: Ki assays / kinetics and inhibition type, UGT2B7 (Example 1)
Details: read-out: Kiapp (Substrate); UGT2B7; p-nitrophenol varied
Observation type: pKi
Just so you know, pKi here is -log10 of the concentration in molar units; reply with that number alone.

Task: Fill in the blank: the reported pKi of CCCCCCCCCC(=O)NC(COC(=O)NS(=O)(=O)OCC1OC(n2ccc(=O)[nH]c2=O)C(O)C1O)Cc1ccccc1 (stereo not shown) [PP55B] is ____.
Output: 5.12

###

Biological target: UGT1A10 (Homo sapiens, UniProt Q9HAW8)
Sequence (Q9HAW8 26-530): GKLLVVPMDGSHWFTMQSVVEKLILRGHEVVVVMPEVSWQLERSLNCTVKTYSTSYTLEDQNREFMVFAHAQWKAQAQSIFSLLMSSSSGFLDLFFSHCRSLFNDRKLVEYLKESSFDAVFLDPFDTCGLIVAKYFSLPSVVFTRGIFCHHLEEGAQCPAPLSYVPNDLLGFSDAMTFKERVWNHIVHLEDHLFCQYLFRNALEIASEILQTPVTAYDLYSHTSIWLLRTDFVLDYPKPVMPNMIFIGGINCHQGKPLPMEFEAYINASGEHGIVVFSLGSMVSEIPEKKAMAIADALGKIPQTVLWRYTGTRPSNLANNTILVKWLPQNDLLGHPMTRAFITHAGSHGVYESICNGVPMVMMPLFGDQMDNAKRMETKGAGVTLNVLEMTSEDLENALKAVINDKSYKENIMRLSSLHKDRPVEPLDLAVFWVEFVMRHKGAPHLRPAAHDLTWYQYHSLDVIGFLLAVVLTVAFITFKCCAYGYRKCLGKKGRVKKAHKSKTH
Assay: Ki assays / kinetics and inhibition type, UGT1A10 (Example 1)
Conditions: read-out: Kiapp (Substrate), E2 varied
Observation type: pKi
Just so you know, pKi here is -log10 of the concentration in molar units; reply with that number alone.

Task: Entry CCCCCCCCCC(=O)NC(COC(=O)NS(=O)(=O)OCC1OC(n2ccc(=O)[nH]c2=O)C(O)C1O)Cc1ccccc1 (stereo not shown) [PP55B] , system UGT1A10 (Homo sapiens, UniProt Q9HAW8): what pKi was measured?
Output: 3.70

###

Target: UGT1A10 (Homo sapiens)
Assay: Ki assays / kinetics and inhibition type, UGT1A10 (Example 1)
Conditions: read-out: Kiapp (Substrate), 8-OH warfarin varied
Observation type: pKi
Just so you know, pKi here is -log10 of the concentration in molar units; reply with that number alone.

Task: Fill in the blank: the reported pKi of CCCCCCCCCC(=O)NC(COC(=O)NS(=O)(=O)OCC1OC(n2ccc(=O)[nH]c2=O)C(O)C1O)Cc1ccccc1 (stereo not shown) [PP55B] is ____.
Output: 4.57

###

Target: UGT1A10 (Homo sapiens, UniProt Q9HAW8)
Sequence (Q9HAW8 26-530): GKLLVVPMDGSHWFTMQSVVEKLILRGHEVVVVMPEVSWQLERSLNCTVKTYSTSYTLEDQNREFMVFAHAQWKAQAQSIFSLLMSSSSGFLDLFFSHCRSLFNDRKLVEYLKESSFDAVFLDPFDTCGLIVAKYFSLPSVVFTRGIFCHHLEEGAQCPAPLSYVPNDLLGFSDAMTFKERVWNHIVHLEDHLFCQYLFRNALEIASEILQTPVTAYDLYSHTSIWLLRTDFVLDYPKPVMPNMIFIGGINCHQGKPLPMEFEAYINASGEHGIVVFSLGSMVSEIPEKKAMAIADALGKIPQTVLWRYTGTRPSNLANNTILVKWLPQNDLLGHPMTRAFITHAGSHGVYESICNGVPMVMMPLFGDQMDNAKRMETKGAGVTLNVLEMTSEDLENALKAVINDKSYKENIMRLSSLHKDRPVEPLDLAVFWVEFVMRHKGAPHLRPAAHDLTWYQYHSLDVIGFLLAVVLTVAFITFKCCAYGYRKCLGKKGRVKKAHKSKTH
Assay: Ki assays / kinetics and inhibition type, UGT1A10 (Example 1)
Conditions: read-out: Ki′app (Substrate), 8-OH warfarin varied
Observation type: Ki (µM)
Number in µM, nothing else.

Task: Fill in the blank: the reported Ki of CCCCCCCCCC(=O)NC(COC(=O)NS(=O)(=O)OCC1OC(n2ccc(=O)[nH]c2=O)C(O)C1O)Cc1ccccc1 (stereo not shown) [PP55B] is ____.
Output: 136

Reference source for all entries: patent US20120184536A1
